- assay.remarks: 3DG inactivation assay (3DG binding assay)
- test.parameters: 2 mM, 1 day, 37°
parameter: 3DG Conc (µM)

compound | 3DG Conc (µM)
Cc1ncc(COP(=O)(O)O)c(C=O)c1O [Pyridoxal-5′-Phosphate] | 13.71
Cc1ncc(CO)c(CO)c1O [Pyridoxine] | 14.82
NCCC(=O)N[C@@H](Cc1cnc[nH]1)C(=O)O [Carnosine] | 16.85
Cc1ncc(CO)c(C=O)c1O.Cl [Pyridoxal-HCl] | 12.16
N=C(N)NCCC[C@H](N)C(=O)O [Arginine] | 15.71

---

- assay.remarks: 3DG inactivation assay (3DG binding assay)
- test.parameters: 30 mM, 1 day, 37°
parameter: 3DG Conc (µM)

molecule | 3DG Conc [µM]
NCCC(=O)N[C@@H](Cc1cnc[nH]1)C(=O)O [Carnosine] | 18.45

[1] CNC[C@H](O)[C@@H](O)[C@H](O)[C@H](O)CO.Cl [Meglumine-HCl, reference compound]
[2] Cl.N[C@H]1C(O)O[C@H](CO)[C@@H](O)[C@@H]1O (stereo partly drawn) [Glucosamine HCl, D-Glucosamine HCl]
## Task For the pair 1 and 2 , which entry has the numerically smaller recorded 3DG Conc? Refer to your chosen entry by its label in the reply.
## Result 1

---

- assay.remarks: 3DG inactivation assay (3DG binding assay)
- test.parameters: 5 mM, 3 days, 37°
Structures can show the parent of a compound that is named as a salt.
parameter: 3DG Conc (µM)

compound | 3DG Conc (µM)
O=C1O[C@H]([C@@H](O)CO)C(O)=C1O | 11.86
NCCC(=O)N[C@@H](Cc1cnc[nH]1)C(=O)O | 14.58
CC(C)(CO)[C@@H](O)C(=O)NCCC(=O)[O-].CC(C)(CO)[C@@H](O)C(=O)NCCC(=O)[O-].[Ca+2] [Calcium Panthenate] | 17.96

[I] Cc1ncc(C[n+]2csc(CCO)c2C)c(N)n1 [Thiamine-HCl]
[II] NC[C@H]1CC[C@H](C(=O)O)CC1 [Tranexamic Acid, reference compound]
## Task For the pair I and II , which entry has the numerically smaller recorded 3DG Conc? Refer to your chosen entry by its label in the reply.
## Result I

[a] Cl.N[C@H]1C(O)O[C@H](CO)[C@@H](O)[C@@H]1O (stereo partly drawn) [Glucosamine HCl, D-Glucosamine HCl]
[b] CC(C)(CO)[C@@H](O)C(=O)NCCCO
## Task For the pair a and b , which entry has the numerically smaller recorded 3DG Conc? Refer to your chosen entry by its label in the reply.
## Result b

---

- assay.remarks: 3DG inactivation assay (3DG binding assay)
- test.parameters: 12 mM, 3 days, 37°
- Experimental: The following assay was used to determine inactivation of 3DG by various natural products and chemicals. • 1. Dilute the samples with Reagent 1 to a volume of 1.9 ml and add 100 uL Reagent 6 to a total of 2 mL. • 2. Take 600 μL from each solution before incubation (as 0 day sample) • 3. Let sit for 24 hours and 72 hours at 37° and remove 600 μL for samples on day 1 and day 3) • 4.
parameter: 3DG Conc (µM)

Use the examples below as a reference point.
molecule | number
Cc1ncc(CO)c(C=O)c1O.Cl [Pyridoxal-HCl] | 14.99
N=C(N)NCCC[C@H](N)C(=O)O | 4.98

[A] NCCC(=O)N[C@@H](Cc1cnc[nH]1)C(=O)O
[B] Cc1ncc(COP(=O)(O)O)c(C=O)c1O [Pyridoxal-5′-Phosphate]
## Task Lab note: check whether A or B shows the higher recorded 3DG Conc. Refer to your chosen entry by its label in the reply.
## Result A

---

- assay.remarks: 3DG inactivation assay (3DG binding assay)
- test.parameters: 30 mM, 3 days, 37°
parameter: 3DG Conc (µM)

compound | 3DG Conc (µM)
CNC[C@H](O)[C@@H](O)[C@H](O)[C@H](O)CO.Cl [Meglumine-HCl, reference compound] | 15.87

[1] NC[C@H]1CC[C@H](C(=O)O)CC1 [Tranexamic Acid, reference compound]
[2] Cl.N[C@H]1C(O)O[C@H](CO)[C@@H](O)[C@@H]1O (stereo partly drawn) [Glucosamine HCl, D-Glucosamine HCl]
## Task For the pair 1 and 2 , which entry has the numerically smaller recorded 3DG Conc? Refer to your chosen entry by its label in the reply.
## Result 1
(1: 16.87 µM, 2: 173.60 µM)

---

- assay.remarks: 3DG inactivation assay (3DG binding assay)
- test.parameters: 30 mM, 1 day, 37°
Where a name gives a salt, the structure may show the parent alone.
parameter: 3DG Conc (µM)

molecule | reading.unit | 3DG Conc
CC(C)(CO)[C@@H](O)C(=O)NCCCO | µM | 17.67
Cc1ncc(C[n+]2csc(CCO)c2C)c(N)n1 [Thiamine-HCl] | µM | 17.76
O=C1O[C@H]([C@@H](O)CO)C(O)=C1O | µM | 17.26
CC(C)(CO)[C@@H](O)C(=O)NCCC(=O)[O-].CC(C)(CO)[C@@H](O)C(=O)NCCC(=O)[O-].[Ca+2] [Calcium Panthenate] | µM | 19.56
NC[C@H]1CC[C@H](C(=O)O)CC1 [Tranexamic Acid, reference compound] | µM | 17.42
